All figures here come from the supplement of paper PMC5412046.

Let's look at some molecules and their measured area under the dose-response curve.
test system: SB.mhdgc-1; assay: area under the dose-response curve of % viability (trapezoidal, 11 doses) (% viability x log10 concentration); higher = less cytotoxic; settings: SB.mhdgc-1 (hereditary c.1380delA CDH1 gastric cancer)
Counter-ions that a name gives are not always drawn.
Write the number on its own, no unit after it.

molecule	area under the dose-response curve
CCOc1cc2ncc(C#N)c(Nc3ccc(OCc4ccccn4)c(Cl)c3)c2cc1NC(=O)/C=C/CN(C)C [Neratinib] (top concentration 46.0829 µM)	393
O=C(c1ccc(OCCN2CCCCC2)cc1)c1c(-c2ccc(O)cc2)sc2cc(O)ccc12 [Raloxifene hydrochloride] (top concentration 46.0829 µM)	350

input: For the molecule Cc1cccc(-c2[nH]c(C(C)(C)C)nc2-c2ccc3c(c2)OCO3)n1 (top concentration 46.0829 µM) , what area under the dose-response curve is on record?
output: 512

input: Reported area under the dose-response curve for Nc1ccc(C(=O)Nc2cccc(-c3nc(N4CCOCC4)c4oc5ncccc5c4n3)c2)cn1 (top concentration 46.0829 µM) : what is it?
output: 452

input: Consider the molecule COC1=CC=C2[N](CCCN(C)C)C=C(C2=C1)C/3=C(/C(=O)NC3=O)C4=C[NH]C5=C4C=CC=C5 [G?-6983] (top concentration 46.0829 µM) and give its measured area under the dose-response curve.
output: 354

input: What value of area under the dose-response curve has been reported for the following molecule? CCc1ccc(OCc2ccccc2C(=O)Nc2ccc3nc(C)cc(N)c3c2)cc1 [JTC-801] (top concentration 46.0829 µM)
output: 416

input: // returns reported area under the dose-response curve for input CCNC(=O)CCC/C=C\C[C@@H]1[C@@H](/C=C/C(O)CCc2ccccc2)[C@@H](O)C[C@@H]1O (some centres not stated) [Bimatoprost] (top concentration 46.0829 µM)
output: 559

input: Find the recorded area under the dose-response curve belonging to FC(F)(F)c1ccc(Nc2nc3cc(Oc4ccnc(-c5ncc(C(F)(F)F)[nH]5)c4)ccc3[nH]2)cc1 [RAF-265 derivative] (top concentration 46.0829 µM) and report it.
output: 476

input: For the molecule CN1CCC(CNc2ccc3ncc(-c4cccc(OC(F)(F)F)c4)n3n2)CC1 [SGI-1776] (top concentration 46.0829 µM) , what area under the dose-response curve is on record?
output: 469

input: Record request: area under the dose-response curve value, item O=C(O)c1cccc(-c2noc(-c3ccccc3F)n2)c1 [PTC-124] (top concentration 46.0829 µM)
output: 614

input: Would you kindly share the measured area under the dose-response curve for Cc1onc(-c2ccccc2Cl)c1C(=O)N[C@@H]1C(=O)N2[C@@H]1SC(C)(C)[C@@H]2C(=O)[O-] [Sodium cloxacillin] (top concentration 46.0829 µM) ?
output: 513

input: What value of area under the dose-response curve has been reported for the following molecule? COC1=CC=C(C=C1)/C2=C(O)/C(=O)C3=C(O)C=C(O)C(=C3O2)CC=C(C)C [Icaritin] (top concentration 46.0829 µM)
output: 476

====

system: SB.mhdgc-1; test: viability at highest tested concentration (MAXR) relative to DMSO; higher = less cytotoxic; conditions: SB.mhdgc-1 (hereditary c.1380delA CDH1 gastric cancer)
Reported viability values for the following molecules.
// units = %; emit number, no label

molecule	target-under-test	metric	unit-abbrev	number
NC(=O)c1cnc(-c2ccc(C3(N)CCC3)cc2)c(-c2ccccc2)c1 [AZD-26] (top concentration 46.0829 µM)	SB.mhdgc-1	viability	%	20.5
C[C@H]1O[C@H]([C@H](O)[C@@H]1O)N2\C=C(F)/C(=O)NC2=O [Doxifluridine] (top concentration 46.0829 µM)	SB.mhdgc-1	viability	%	58.7
CS[C@H]1SC[C@@H]2C(=O)N(C)[C@H](C(C)C)C(=O)OC[C@H](NC(=O)c3cnc4ccccc4n3)C(=O)N[C@H](C)C(=O)N(C)[C@H]1C(=O)N(C)[C@H](C(C)C)C(=O)OC[C@H](NC(=O)c1cnc3ccccc3n1)C(=O)N[C@H](C)C(=O)N2C [Echinomycin] (top concentration 46.0829 µM)	SB.mhdgc-1	viability	%	52.7
O=C(Nc1c[nH]nc1-c1nc2cc(CN3CCOCC3)ccc2[nH]1)NC1CC1 [AT-9283] (top concentration 46.0829 µM)	SB.mhdgc-1	viability	%	51

Attention now shifts to the item below.
input: Param item = CC(=O)OCC(=O)[C@@]12OC(C)(C)O[C@@H]1C[C@H]3[C@@H]4C[C@H](F)C/5=C/C(=O)/C=C\[C@]5(C)[C@@]4(F)[C@@H](O)C[C@]23C [Fluocinonide] (top concentration 46.0829 µM) ; retrieve measured viability.
output: 120

====

Some compounds, each annotated with its measured viability.
tested on: SB.msgc-1; experiment: viability at highest tested concentration (MAXR) relative to DMSO; higher = less cytotoxic; settings: SB.msgc-1 (sporadic gastric cancer)
Where a name gives a salt, the structure may show the parent alone.
State just the number; it will be interpreted in %.

Answered cases to consult:
compound	number
CN(C)/[N+]([O-])=N/Oc1cc(ON[N+](=O)N2CCN(C(=O)c3cc(Cc4n[nH]c(=O)c5ccccc45)ccc3F)CC2)c([N+](=O)[O-])cc1[N+](=O)[O-] [JS-65-103] (top concentration 46.0829 µM)	68.2
CN1\C(=C(O)/C2=C(C=C(Cl)S2)[S+]1([O-])=O)C(=O)NC3=NC=CC=C3 [Lornoxicam] (top concentration 46.0829 µM)	33.4
CCN1\C=C(\C(O)=O)C(=O)C2=C1N=C(N3CCNCC3)C(=C2)F [Enoxacin] (top concentration 46.0829 µM)	80.9

input: Which viability reading was recorded for the compound COc1cc2cc(c1Cl)N(C)C(=O)C[C@H](OC(=O)C(C)C)[C@]1(C)O[C@@H]1[C@H](C)[C@@H]1C[C@@](O)(NC(=O)O1)[C@H](OC)/C=C/C=C(\C)C2 [Ansamitocin P3] (top concentration 46.0829 µM) ?
output: 40.8

input: Please give the measured viability for this compound: NC12CC3CC(CC(C3)C1)C2 [Amantadine hydrochloride] (top concentration 46.0829 µM)
output: 43.7

====

system: SB.msgc-1; experiment: AC50 for growth inhibition (viability) (log10 M); higher = less potent; conditions: SB.msgc-1 (sporadic gastric cancer)
Counter-ions that a name gives are not always drawn.
Each record's class is read off its AC50 for growth inhibition (log10 M) using these ranges: low value: < -6; medium value: ≥ -6 and < -5; high value: ≥ -5

compound	answer-label
CC(=O)[C@]1(O)Cc2c(O)c3c(c(O)c2[C@@H](O[C@H]2C[C@H](N)[C@H](O)[C@H](C)O2)C1)C(=O)c1ccccc1C3=O [Idarubicin hydrochloride]	low value
C[S+](=O)([O-])c1ccc(C(=O)Nc2ccc(Cl)c(-c3ccccn3)c2)c(Cl)c1	high value
CCCCC[C@H](O)/C=C/[C@H]1[C@H](O)CC(=O)[C@@H]1CCCCCCC(=O)O	high value
CCOc1cc2ncc(C#N)c(Nc3ccc(F)c(Cl)c3)c2cc1NC(=O)/C=C/CN(C)C	low value
OCCCNc1cc(-c2ccnc(Nc3cccc(Cl)c3)n2)ccn1	low value

input: Which bin, given its AC50 for growth inhibition (log10 M), does O=[N+]([O-])c1ccc(Nc2ccccc2-c2ccccc2)c2nonc12 occupy?
output: high value

input: Band assignment needed for O=C(/C=C/c1cccc([S+](=O)([O-])Nc2ccccc2)c1)NO please.
output: medium value

input: Band assignment needed for C[C@]12CC[C@H]3[C@@H](C\C=C/4C[C@@H](O)CC[C@]34C)[C@@H]1CCC2=O [Dehydroepiandrosterone] please.
output: high value

input: Classify this compound: CSCC[C@H](NC(=O)[C@H](Cc1c[nH]c2ccccc12)NC(=O)CCNC(=O)OC(C)(C)C)C(=O)N[C@@H](CC(=O)O)C(=O)N[C@@H](Cc1ccccc1)C(N)=O
output: medium value

input: Band assignment needed for COc1cc2nccc(Oc3ccc(NC(=O)C4(C(=O)Nc5ccc(F)cc5)CC4)cc3)c2cc1OC [Cabozantinib] please.
output: medium value

input: Quick check: band for C[C@@H]1CC[C@@]2(CC[C@]3(C)\C(=C/C[C@@H]4[C@@]5(C)CC[C@H](O)C(C)(C)[C@@H]5CC[C@@]34C)[C@@H]2[C@H]1C)C(O)=O
output: high value

input: Place this compound in its band: N=C(CCSCc1csc(N=C(N)N)n1)N[S+](N)(=O)[O-]
output: high value

input: Any idea which band CNc1nccc(-c2cccnc2Oc2cc(C(=O)Nc3cccc(C(F)(F)F)c3)ccc2C)n1 is in?
output: high value

====

system: SB.mhdgc-1; assay: AC50 for growth inhibition (viability) (log10 M); higher = less potent; settings: SB.mhdgc-1 (hereditary c.1380delA CDH1 gastric cancer)
metric: AC50 for growth inhibition (log10 M)
Lab note: record just the number, no unit beside it.

Would you please look over these solved cases?
molecule	AC50 for growth inhibition (log10 M)
C[C@]12Cc3cn[nH]c3C[C@@H]1CC[C@@H]1[C@@H]2CC[C@@]2(C)[C@H]1CC[C@]2(C)O	-5.98
C=CC(=O)N1CCC[C@@H](n2nc(-c3ccc(Oc4ccccc4)cc3)c3c(N)ncnc32)C1	-5.98
O=C1c2c(O)cc(O)cc2O[C@H](c2cc(O)c(O)c(O)c2)[C@H]1O [Dihydromyricetin]	-5.33

input: Checklist item: AC50 for growth inhibition (log10 M) tested on SB.mhdgc-1, entry CC(C)n1nc(-c2ccc3oc(N)nc3c2)c2c(N)ncnc21 , value?
output: -4.78
